test system: GH3-TRE-Luc cell line; conditions: read-out: AC50 (uM) modified / 1000; Tox21_110001=Tox21_111135; viability, 1 nM T3 present, 24 h
endpoint name: CC50 (µM)
// note: answer is a bare numeric in µM

Input line: // Input: Cc1ccc(-c2cc(C(F)(F)F)nn2-c2ccc(S(N)(=O)=O)cc2)cc1 . Output its CC50 only.
Output line: 21.2

---

target: human RXRα (Homo sapiens, UniProt P19793); construct: host or cells: GeneBLAzer UAS-bla HEK 293T; test: RXRa-bla-Ag mammalian one-hybrid beta-lactamase assay (TOX21_TR_RXR_BLA_Agonist_Followup_ratio, aeid 2253); format: cell-based
Sequence (P19793 227-458 limits assumed): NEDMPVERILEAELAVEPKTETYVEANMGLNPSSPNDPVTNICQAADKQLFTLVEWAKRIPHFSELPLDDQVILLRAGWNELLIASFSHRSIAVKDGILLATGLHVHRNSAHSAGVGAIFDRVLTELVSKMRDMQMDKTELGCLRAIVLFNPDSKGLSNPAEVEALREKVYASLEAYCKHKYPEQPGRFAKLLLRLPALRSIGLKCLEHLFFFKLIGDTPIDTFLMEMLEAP
endpoint name: EMax (% of Control) tr-followup-rxr-bla-agonist-1

Input line: // Input: Cc1cc(NC(=O)C(=O)O)cc(C)c1Oc1ccc(O)c2c1CCC2 [CP-634384, reference compound] . Output its EMax (% of Control) tr-followup-rxr-bla-agonist-1 only.
Output line: 54.9 % of Control

Input line: // Input: Cl.NC(CO)(CO)CO [Tromethamine hydrochloride] . Output its EMax (% of Control) tr-followup-rxr-bla-agonist-1 only.
Output line: 5.9 % of Control

Input line: // Input: CC(C)(c1ccccc1)c1ccc(O)c(C(C)(C)c2ccccc2)c1 . Output its EMax (% of Control) tr-followup-rxr-bla-agonist-1 only.
Output line: 12.1 % of Control

Input line: // Input: Cc1ccc(O)cc1 . Output its EMax (% of Control) tr-followup-rxr-bla-agonist-1 only.
Output line: 12.6 % of Control

Input line: // Input: N[C@@H](Cc1ccc(Oc2cc(I)c(O)c(I)c2)c(I)c1)C(=O)O . Output its EMax (% of Control) tr-followup-rxr-bla-agonist-1 only.
Output line: 17.4 % of Control

Input line: // Input: CC1(C)COP(Oc2ccccc2)OC1 . Output its EMax (% of Control) tr-followup-rxr-bla-agonist-1 only.
Output line: 26.5 % of Control
